B1: TPR t1 (parent)
chain: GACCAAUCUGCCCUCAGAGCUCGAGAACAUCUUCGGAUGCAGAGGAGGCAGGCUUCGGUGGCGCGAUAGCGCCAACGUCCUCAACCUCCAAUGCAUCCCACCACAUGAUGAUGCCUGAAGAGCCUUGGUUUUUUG

- Variants of: B1
- measurement protocol: polymerase ribozyme fitness, log enrichment relative to wild type (log ratio); higher = more active; in vitro selection for triplet polymerase activity
Tag: Fulfilled if measured polymerase ribozyme fitness (log ratio) is not below -1, Not fulfilled if it is.

> print(dat)
                  mutation.key  classification
 1             U54G G71A G120C   Not fulfilled
 2       G39A A83U U106A C114U   Not fulfilled
 3       U59A C70U U125A U133A   Not fulfilled
 4             G45U C72U G120A       Fulfilled
 5        C53A A74U A95C G120A       Fulfilled
 6                   C34G C64U   Not fulfilled
 7              C80A A84G C98U   Not fulfilled
 8                  A91U C115G   Not fulfilled
 9  G44A G57A A91G C101G G113U   Not fulfilled
10       G61A C86U U116A G117A   Not fulfilled
11         G61A C64U C72U A91U   Not fulfilled
12  A24G G48A C64G A108U A121C   Not fulfilled
13       A5C C124A U126A U131A       Fulfilled
14                    C3A A84G   Not fulfilled
15                  U96G C102U   Not fulfilled
16                 G120U U132A       Fulfilled
17                   G44A G51C   Not fulfilled
18             U54C C79G U125C   Not fulfilled
19                   C70A A84U       Fulfilled
20              G10U G52U U96G       Fulfilled
21                  A43U G113A   Not fulfilled
22                 C114A U129C   Not fulfilled
23              C28U G48U U78A   Not fulfilled
